Data provenance is a polymer gas permeability compilation.

Exam item: assign TRUE to entries whose CO2 permeability is below 30 Barrer and FALSE to entries at or above 30 Barrer. Note that a value of exactly 30 Barrer receives FALSE.

Answered examples (4):
[in] Is it true that CO2 permeability reported for */C(C)=C(/*)[Si](C)(C)CCCCCCCC (repeat unit) is less than 30 Barrer?
[out] FALSE

[in] Is it true that CO2 permeability reported for *Oc1c(Br)cc(C(c2cc(Br)c(OC(*)=O)c(Br)c2)(C(F)(F)F)C(F)(F)F)cc1Br (repeat unit) is less than 30 Barrer?
[out] FALSE

[in] Is it true that CO2 permeability reported for *c1ccc(Oc2ccc(-c3ccc(-c4ccc(Oc5ccc(N6C(=O)c7ccc(C(c8ccc9c(c8)C(=O)N(*)C9=O)(C(F)(F)F)C(F)(F)F)cc7C6=O)cc5)c(C(F)(F)F)c4)cc3)cc2C(F)(F)F)cc1 (repeat unit) is less than 30 Barrer?
[out] FALSE

[in] Is it true that CO2 permeability reported for *Oc1ccc(C(C)(C)c2ccc(OCCC(*)O)cc2)cc1 (repeat unit) is less than 30 Barrer?
[out] TRUE

Moving on to another molecule below.
[in] Is it true that CO2 permeability reported for *Oc1c(C)cc(*)c(C(=O)c2ccc(Br)cc2)c1C (repeat unit) is less than 30 Barrer?
[out] TRUE
